biological target: first (BD1: amino acids K57-E168) bromodomain of BRD4 (Homo sapiens, UniProt O60885); construct: His-tagged first (BD1: amino acids K57-E168); experiment: TR-FRET bromodomain binding assay, BRD4 BD1; conditions: TR-FRET assay protocol (A-G, compound concentration range); Ki calculated from IC50, probe Kd and probe concentration; read-out: TR-FRET Binding Ki: BRD4 (BDI_K57-E168)
Measured property: Ki (nM)

> print(dat)
                                    compound  comparison.sign  number
 1  Cn1nc(-c2ccccc2Oc2ccccc2)c(-c2ccc(C(=O)N3CCOCC3)cc2)cc1=O                =     260
 2  CCS(=O)(=O)Nc1ccc(Oc2ccc(F)cc2F)c(-c2cn(C)c(=O)cc2OCC(C)C)c1                =      12
 3  Cn1nc(-c2ccccc2Oc2ccccc2)c(-c2cncc(NC3CCCC3)c2)cc1=O                =    3200
 4  Cn1nc(-c2ccccc2Oc2ccc(S(C)(=O)=O)cc2)ccc1=O                =    8590
 5  CCCS(=O)(=O)Nc1ccc(Oc2ccccc2)c(-c2nn(C)c(=O)cc2OC)c1                =     326
 6  Cn1nc(-c2ccccc2Oc2ccccc2)c(-c2ccc(C(=O)NCCC#N)cc2)cc1=O                =     567
 7  COC(=O)c1ccccc1-c1cc(=O)n(C)nc1-c1ccccc1Oc1ccccc1                =    9340
 8  Cn1nc(-c2ccccc2Oc2ccccc2)c(-c2ccc(N3CCOCC3)cc2)cc1=O                =     213
 9  CCN(CC)CC#CCOc1cc(=O)n(C)cc1-c1cc(NS(=O)(=O)CC)ccc1Oc1ccc(F)cc1F                =     7.1
10  CC(C)C(O)c1ccc(-c2cc(=O)n(C)nc2-c2ccccc2Oc2ccccc2)cc1 (centres unmarked)                =     462
11  COc1ccc(F)c(-c2cc(=O)n(C)nc2-c2ccccc2Oc2ccccc2)c1                =    9870
12  Cn1cc(-c2cc(NS(C)(=O)=O)ccc2Oc2ccc(Cl)cc2)ccc1=O                =    19.2
13  COc1cc(=O)n(C)nc1-c1ccccc1Oc1ccc(F)c(Cl)c1                =    8170
14  COC(=O)CNc1cc(=O)n(C)nc1-c1ccccc1Oc1ccccc1                =    2100
15     COc1cc(=O)n(C)nc1-c1ccccc1OCCC1CCCCC1                >   12600
16  CNc1ccc(-c2cc(=O)n(C)nc2-c2ccccc2Oc2ccccc2)cc1                =     324
17  COc1ccc(-c2cc(=O)n(C)nc2-c2ccccc2Oc2ccccc2)c(OC)n1                >   13000
